Reference source: patent US20240116985A1

List of NanoBRET Abs IC50 values.
Target: T1, B-cat-Halo (beta-catenin HaloTag fusion expressed in HEK293 cells) (Homo sapiens (Human), UniProt P35222 1-781)
T1 sequence: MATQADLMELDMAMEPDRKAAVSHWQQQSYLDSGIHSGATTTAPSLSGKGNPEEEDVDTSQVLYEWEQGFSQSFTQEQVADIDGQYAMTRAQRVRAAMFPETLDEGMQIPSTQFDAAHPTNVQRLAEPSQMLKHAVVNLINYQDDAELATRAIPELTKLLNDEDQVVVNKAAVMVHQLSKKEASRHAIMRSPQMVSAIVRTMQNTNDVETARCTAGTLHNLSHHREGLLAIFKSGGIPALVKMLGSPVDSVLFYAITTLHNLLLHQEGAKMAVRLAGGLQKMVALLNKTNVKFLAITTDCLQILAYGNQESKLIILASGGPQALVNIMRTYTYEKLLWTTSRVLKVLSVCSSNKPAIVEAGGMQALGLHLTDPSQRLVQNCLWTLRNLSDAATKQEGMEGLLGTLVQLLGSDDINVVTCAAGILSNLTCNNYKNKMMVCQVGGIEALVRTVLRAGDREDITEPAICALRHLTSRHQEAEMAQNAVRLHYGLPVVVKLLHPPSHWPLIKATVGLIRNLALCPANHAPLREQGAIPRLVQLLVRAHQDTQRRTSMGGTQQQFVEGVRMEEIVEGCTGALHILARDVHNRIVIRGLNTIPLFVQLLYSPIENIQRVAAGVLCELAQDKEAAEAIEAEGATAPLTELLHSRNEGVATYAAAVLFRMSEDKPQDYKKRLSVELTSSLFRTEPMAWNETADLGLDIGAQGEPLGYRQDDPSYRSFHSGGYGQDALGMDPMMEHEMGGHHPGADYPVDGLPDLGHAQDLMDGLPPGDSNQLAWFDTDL
Assay: cell-based or functional assay
Starred links: 1 amine or outer side, 2 acyl side, 3 side chain; linkers in the order of their positions; H or OH if unused. Positions of bridges follow the written chain, without caps; N, C: chain ends. Non-standard residues stand in square brackets, D forms with d. Primed or numbered codes have the meaning given here. (CCpCO2H)TriAzDap = (S)-1-(1-(2-amino-2-carboxyethyl)-1H-1,2,3-triazol-4-yl)cyclopropane-1-carboxylic acid, O=C([C@H](Cn1cc(C2(C(=O)[*:3])CC2)nn1)N[*:1])[*:2]; PyrS2″ = (S)-3-amino-1-((pent-4-en-1-yloxy)carbonyl)pyrrolidine-3-carboxylic acid (stapling residue), C=CCCCOC(=O)N1CC[C@@](N[*:1])(C(=O)[*:2])C1; B5(4) = 2,2-bis(4-pentenyl)glycine = 2-amino-2-(pent-4-en-1-yl)hept-6-enoic acid (stitching residue), C=CCCCC(CCCC=C)(N[*:1])C(=O)[*:2]; B5(5) = 2,2-bis(4-pentenyl)glycine, 2-amino-2-(pent-4-en-1-yl)hept-6-enoic acid (stitching residue), C=CCCCC(CCCC=C)(N[*:1])C(=O)[*:2]; Phe(3-COOH) = N[C@@H](Cc1cccc(C(=O)O)c1)C(=O)O; Phe(2-CF3) = N[C@@H](Cc1ccccc1C(F)(F)F)C(=O)O; Bta = N[C@@H](Cc1csc2ccccc12)C(=O)O; αAllylPro = C=CC[C@@]1(C(=O)O)CCCN1; tBuAla = CC(C)(C)C[C@H](N)C(=O)O; 3Thi = N[C@@H](Cc1ccsc1)C(=O)O
Your answer is read as µM, so omit the unit and give the number.

Example cases with answers are listed next.
1) Ac-[αAllylPro]D[tBuAla][B5(4)]D[Phe(3-COOH)]AAFL[PyrS2″][Phe(2-CF3)][RbMeBztA]Q-NH2 (staple 1-4, 4-11) [I-2458] = 5.9
2) Ac-[αAllylPro]D[tBuAla][B5(5)]D[(CCpCO2H)TriAzDap]AAFL[PyrS2″][3Thi][Bta]Q-NH2 (staple 1-4, 4-11; not fully specified; printed as Ac-PL3-Asp-Npg-B5-Asp-[CCpCO2H]TriAzDap-Ala-Ala-Phe-Leu-PyrS2-3Thi-BztA-Gln-NH2) [I-2445] = 17.1

Moving on to another binder below.
Incoming: Param item = Ac-[αAllylPro]D[tBuAla][B5(4)]D[Phe(3-COOH)]AAFL[PyrS2″][Phe(2-CF3)][RbMe2NapA]Q-NH2 (staple 1-4, 4-11) [I-2462] ; retrieve measured NanoBRET Abs IC50.
Outgoing: 4.7
